These data points were gathered from paper doi:10.1101/2022.07.28.501929.

experimental system: Human alpha-thrombin (Factor IIa) (Homo sapiens, UniProt P00734;P00734 328-363;364-622)
method notes: bead fluorescence binding

>  <binder>
SAM16-16 with EcoRI site, EcoRI digested (mixed) DNA 1: AATTCCGAAGTCCGTGGTAGGGCAGGTTGGGGTGACTATCGACGG DNA 2: TCGG DNA 3: AATTCCGTCGAT

>  <unit spec>
nM

>  <Kd>
56.3

$$$$
